meta.source: patent US20090304692A1

Target: PI3K-α (Homo sapiens, UniProt P42336)
Sequence (P42336 whole entry, species assumed): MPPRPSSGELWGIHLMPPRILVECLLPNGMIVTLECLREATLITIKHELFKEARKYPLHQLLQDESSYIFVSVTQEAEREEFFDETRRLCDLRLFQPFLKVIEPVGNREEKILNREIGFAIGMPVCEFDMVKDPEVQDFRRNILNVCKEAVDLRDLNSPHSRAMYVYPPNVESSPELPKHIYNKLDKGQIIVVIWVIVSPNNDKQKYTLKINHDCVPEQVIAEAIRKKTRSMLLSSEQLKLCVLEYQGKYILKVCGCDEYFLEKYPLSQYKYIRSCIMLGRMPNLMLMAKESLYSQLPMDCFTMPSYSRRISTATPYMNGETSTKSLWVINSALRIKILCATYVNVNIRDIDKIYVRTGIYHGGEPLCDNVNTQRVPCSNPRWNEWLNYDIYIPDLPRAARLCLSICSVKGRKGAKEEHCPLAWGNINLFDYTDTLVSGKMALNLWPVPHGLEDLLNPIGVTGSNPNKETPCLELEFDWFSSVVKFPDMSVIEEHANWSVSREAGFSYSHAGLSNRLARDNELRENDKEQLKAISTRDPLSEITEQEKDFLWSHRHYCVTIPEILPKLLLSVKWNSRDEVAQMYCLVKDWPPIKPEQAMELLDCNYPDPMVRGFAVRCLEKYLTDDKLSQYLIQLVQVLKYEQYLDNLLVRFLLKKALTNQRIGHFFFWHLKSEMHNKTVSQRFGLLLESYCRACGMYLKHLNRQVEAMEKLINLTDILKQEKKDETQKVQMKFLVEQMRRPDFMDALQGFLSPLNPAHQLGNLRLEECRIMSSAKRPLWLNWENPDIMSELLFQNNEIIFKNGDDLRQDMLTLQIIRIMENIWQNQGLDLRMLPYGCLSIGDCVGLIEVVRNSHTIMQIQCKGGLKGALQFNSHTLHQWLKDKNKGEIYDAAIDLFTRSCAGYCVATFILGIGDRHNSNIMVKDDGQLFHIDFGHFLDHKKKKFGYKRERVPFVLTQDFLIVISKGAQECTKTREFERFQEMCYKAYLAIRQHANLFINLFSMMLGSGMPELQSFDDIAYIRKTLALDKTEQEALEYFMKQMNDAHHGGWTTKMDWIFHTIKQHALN
Sequence (P27986 whole entry partner, species assumed): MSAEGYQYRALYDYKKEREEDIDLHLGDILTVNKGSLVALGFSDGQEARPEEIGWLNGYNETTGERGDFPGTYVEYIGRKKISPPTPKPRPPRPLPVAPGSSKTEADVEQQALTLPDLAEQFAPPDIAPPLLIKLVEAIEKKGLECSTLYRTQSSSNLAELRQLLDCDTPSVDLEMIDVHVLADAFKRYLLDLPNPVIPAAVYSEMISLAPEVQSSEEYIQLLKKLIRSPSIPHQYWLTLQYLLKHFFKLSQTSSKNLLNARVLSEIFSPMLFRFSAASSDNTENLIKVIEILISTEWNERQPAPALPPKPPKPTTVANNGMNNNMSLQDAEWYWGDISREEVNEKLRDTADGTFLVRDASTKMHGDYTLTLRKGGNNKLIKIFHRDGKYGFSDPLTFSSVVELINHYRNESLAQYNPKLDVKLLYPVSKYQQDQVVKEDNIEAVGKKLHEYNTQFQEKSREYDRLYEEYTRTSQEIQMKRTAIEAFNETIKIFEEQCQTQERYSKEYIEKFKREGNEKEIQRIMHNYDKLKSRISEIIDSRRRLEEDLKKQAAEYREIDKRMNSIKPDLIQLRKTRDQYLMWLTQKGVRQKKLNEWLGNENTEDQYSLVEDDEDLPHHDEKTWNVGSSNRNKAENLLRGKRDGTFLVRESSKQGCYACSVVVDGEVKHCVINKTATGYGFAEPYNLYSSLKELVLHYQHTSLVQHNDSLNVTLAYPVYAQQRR
Experiment: PI3K-alpha fluorescence polarization assay
Details: read-out: IC50 PI3Kα; listed as 505
pIC50: −log10 of the molar value.
measurementName: pIC50

CN(C)C1CCN(C(=O)c2ccc(NC(=O)Nc3ccc(-c4nc(C5=CCOCC5)nc(N5CCOCC5)n4)cc3)cc2)CC1 [Example 283]
9.22

----------
Target: PI3K-γ (Homo sapiens)
Test: PI3K-gamma fluorescence polarization assay
Conditions: read-out: IC50 PI3Kγ
pIC50: −log10 of the molar value.
measurementName: pIC50

O=C(Nc1ccc(C(=O)N2CCN(C3CCCC3)CC2)cc1)Nc1ccc(-c2nc(N3CCOCC3)nc(N3C4CCC3COC4)n2)cc1
7.58
CCCC1CCN(C(=O)c2ccc(NC(=O)Nc3ccc(-c4nc(N5CCOC[C@@H]5C)nc(N5CCOC[C@@H]5C)n4)cc3)cc2)CC1
6.33
O=C(Nc1ccncc1)Nc1ccc(-c2nc(N3CCOCC3)nc(N3C4COCC3C(O)C4)n2)cc1 (stereo not shown)
7.48
O=C(Nc1ccc(C(=O)N2CCNCC2)cc1)Nc1ccc(-c2nc(NS(=O)(=O)c3ccccc3)nc(N3CCOCC3)n2)cc1
7.34

----------
Target: PI3K-α (Homo sapiens, UniProt P42336)
Assay: PI3K-alpha fluorescence polarization assay
Details: read-out: IC50 PI3Kα; listed as 669
measurementName: IC50 (nM)

O=C(Nc1ccncc1)Nc1ccc(-c2nc(N3CCOCC3)nc(N3C4CCC3COC4)n2)cc1 [Example 34]
8

----------
Known IC50 of a selection of molecules
Molecular target: PI3K-γ (Homo sapiens, UniProt P48736)
Sequence (P48736 whole entry, species assumed): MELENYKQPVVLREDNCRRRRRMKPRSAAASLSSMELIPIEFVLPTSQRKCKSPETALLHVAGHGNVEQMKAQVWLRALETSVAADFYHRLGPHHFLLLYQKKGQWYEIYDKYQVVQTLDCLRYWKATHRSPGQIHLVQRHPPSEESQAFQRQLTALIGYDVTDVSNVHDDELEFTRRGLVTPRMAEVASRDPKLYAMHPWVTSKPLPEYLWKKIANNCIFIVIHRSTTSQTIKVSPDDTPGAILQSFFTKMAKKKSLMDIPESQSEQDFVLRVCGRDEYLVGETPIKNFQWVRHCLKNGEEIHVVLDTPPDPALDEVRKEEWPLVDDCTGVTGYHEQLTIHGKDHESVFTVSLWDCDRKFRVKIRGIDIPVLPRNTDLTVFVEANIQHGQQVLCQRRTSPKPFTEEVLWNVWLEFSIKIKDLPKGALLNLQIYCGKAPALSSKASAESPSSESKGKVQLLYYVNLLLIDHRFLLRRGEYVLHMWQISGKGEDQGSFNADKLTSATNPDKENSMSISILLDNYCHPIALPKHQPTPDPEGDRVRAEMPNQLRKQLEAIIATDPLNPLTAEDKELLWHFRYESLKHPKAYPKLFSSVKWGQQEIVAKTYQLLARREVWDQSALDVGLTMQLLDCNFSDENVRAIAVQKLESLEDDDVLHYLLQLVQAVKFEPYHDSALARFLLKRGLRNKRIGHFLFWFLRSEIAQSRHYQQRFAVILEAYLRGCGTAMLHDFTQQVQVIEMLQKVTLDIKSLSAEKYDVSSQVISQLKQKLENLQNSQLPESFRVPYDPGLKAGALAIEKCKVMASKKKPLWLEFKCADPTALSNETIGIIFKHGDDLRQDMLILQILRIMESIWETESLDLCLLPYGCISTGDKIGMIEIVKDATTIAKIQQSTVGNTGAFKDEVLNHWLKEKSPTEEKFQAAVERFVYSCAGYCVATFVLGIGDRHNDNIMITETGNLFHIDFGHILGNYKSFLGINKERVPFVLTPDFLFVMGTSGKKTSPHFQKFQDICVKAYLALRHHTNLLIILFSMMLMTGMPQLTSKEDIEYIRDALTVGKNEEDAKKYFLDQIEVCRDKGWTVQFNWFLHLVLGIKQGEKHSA
Assay: PI3K-gamma fluorescence polarization assay
Settings: read-out: IC50 PI3Kγ
measurementName: IC50

O=C(Nc1ccc(C(=O)N2CCNCC2)cc1)Nc1ccc(-c2nc(N3CCOCC3)nc(N3C4CCCC3COC4)n2)cc1
15 nM
CN1CCN(C(=O)c2ccc(NC(=O)Nc3ccc(-c4nc(C5CCOCC5)nc(N5CCOCC5)n4)cc3)cc2)CC1
10.3 nM
O=C(Nc1ccccc1)Nc1ccc(-c2nc(N3CCOCC3)nc(N3CCOCC3)n2)cc1
27 nM
C[C@@H]1COCCN1c1nc(-c2ccc(NC(=O)Nc3ccncc3)cc2)nc(N2CCOC[C@H]2C)n1
2070 nM

----------
Biological target: PI3K-γ (Homo sapiens, UniProt P48736)
Experiment: PI3K-gamma fluorescence polarization assay
Conditions: read-out: IC50 PI3Kγ; listed as 729
measurementName: IC50

CN(C)CCOc1ccc(NC(=O)Nc2ccc(-c3nc(N4CCOCC4)nc(N4C5CCC4COC5)n3)cc2)cc1
0.1 µM

----------
IC50 overview
Biological target: Human mTOR (FLAG-TOR) (Homo sapiens, UniProt P42345)
Sequence (P42345 1360-2549 limits assumed): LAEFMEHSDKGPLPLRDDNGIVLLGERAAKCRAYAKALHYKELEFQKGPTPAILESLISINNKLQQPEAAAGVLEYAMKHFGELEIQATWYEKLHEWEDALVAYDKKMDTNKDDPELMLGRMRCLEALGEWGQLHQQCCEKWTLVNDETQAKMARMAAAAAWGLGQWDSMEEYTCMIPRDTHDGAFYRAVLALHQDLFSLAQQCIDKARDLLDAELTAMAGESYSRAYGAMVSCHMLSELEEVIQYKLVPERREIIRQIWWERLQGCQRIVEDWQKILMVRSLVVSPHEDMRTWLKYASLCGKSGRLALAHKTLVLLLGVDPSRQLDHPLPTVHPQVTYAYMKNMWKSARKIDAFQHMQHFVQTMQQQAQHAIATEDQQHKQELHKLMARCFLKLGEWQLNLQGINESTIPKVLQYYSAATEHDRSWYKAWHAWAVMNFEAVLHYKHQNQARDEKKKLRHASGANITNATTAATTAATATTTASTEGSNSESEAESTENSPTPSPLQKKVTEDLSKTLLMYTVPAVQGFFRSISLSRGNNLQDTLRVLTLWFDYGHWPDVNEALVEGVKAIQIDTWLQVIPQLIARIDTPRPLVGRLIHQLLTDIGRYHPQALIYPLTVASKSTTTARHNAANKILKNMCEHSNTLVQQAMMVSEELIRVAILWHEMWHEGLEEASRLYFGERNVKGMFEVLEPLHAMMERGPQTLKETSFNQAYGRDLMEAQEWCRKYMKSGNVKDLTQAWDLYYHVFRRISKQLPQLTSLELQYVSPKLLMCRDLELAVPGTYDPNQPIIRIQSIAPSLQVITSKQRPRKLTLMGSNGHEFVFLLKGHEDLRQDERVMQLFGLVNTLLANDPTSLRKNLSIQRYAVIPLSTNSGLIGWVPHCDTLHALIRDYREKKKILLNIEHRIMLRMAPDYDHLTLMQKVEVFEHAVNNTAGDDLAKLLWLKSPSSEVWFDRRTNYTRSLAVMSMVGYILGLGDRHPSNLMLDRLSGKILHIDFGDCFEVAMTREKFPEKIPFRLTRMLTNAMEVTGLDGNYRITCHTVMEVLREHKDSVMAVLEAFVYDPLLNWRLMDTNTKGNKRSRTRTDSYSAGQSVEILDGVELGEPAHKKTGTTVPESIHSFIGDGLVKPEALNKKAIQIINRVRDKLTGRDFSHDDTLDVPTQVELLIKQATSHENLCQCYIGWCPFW
Experiment: mTOR kinase assay (DELFIA format, purified enzyme)
Format: biochemical
Settings: read-out: IC50 mTOR
measurementName: IC50 (nM)

O=C(Nc1ccc(F)cc1)Nc1ccc(-c2nc(NC3CNC3)nc(N3CCOCC3)n2)cc1
39
O=C(Nc1ccc(-c2nc(C3CCOCC3)nc(N3C4CCC3COC4)n2)cc1)Nc1ccc(N2CCN(C3CC3)CC2)cc1
0.62
C[C@@H]1COCCN1c1nc(-c2ccc(NC(=O)Nc3ccc(CN4CCN(C)CC4)cc3)cc2)nc(N2C[C@@H]3C[C@H]2CO3)n1
9.2
O=C(Nc1ccc(C(=O)O)cc1)Nc1ccc(-c2nc(N3CCC3)nc(N3CCOCC3)n2)cc1
21

----------
Target: PI3K-α (Homo sapiens, UniProt P42336)
Assay: PI3K-alpha fluorescence polarization assay
Conditions: read-out: IC50 PI3Kα; listed as 671
measurementName: IC50 (µM)

O=C(Nc1ccc(-c2nc(N3CCOCC3)nc(N3C4CCC3COC4)n2)cc1)Nc1cccnc1
0.0175

----------
Target: PI3K-γ (Homo sapiens, UniProt P48736)
Assay: PI3K-gamma fluorescence polarization assay
Settings: read-out: IC50 PI3Kγ; listed as 672
measurementName: IC50 (nM)

O=C(Nc1ccc(F)cc1)Nc1ccc(-c2nc(N3CCOCC3)nc(N3C4CCC3COC4)n2)cc1
154

----------
pIC50 for assorted molecules
Molecular target: Human mTOR (FLAG-TOR) (Homo sapiens, UniProt P42345)
Assay: mTOR kinase assay (DELFIA format, purified enzyme)
Format: biochemical
Details: read-out: IC50 mTOR
pIC50: −log10 of the molar value.
measurementName: pIC50

O=C(Nc1ccc(O)cc1)Nc1ccc(-c2nc(N3CCOCC3)nc(N3CCOCC3)n2)cc1
8.32
CCc1nc(-c2ccc(NC(=O)Nc3ccc(C(=O)N(C)CCN(C)C)cc3)cc2)nc(N2CCOCC2)n1
8.15
CN1CCCN(C(=O)Nc2ccc(NC(=O)Nc3ccc(-c4nc(N5CCOCC5)nc(N5CCOCC5)n4)cc3)cc2)CC1
9.00
Cc1ccc(-c2nc(-c3ccc(NC(=O)Nc4cccc(C(=O)NCCN(C)C)c4)cc3)nc(N3CCOCC3)n2)cc1
7.32

----------
Biological target: PI3K-γ (Homo sapiens)
Test: PI3K-gamma fluorescence polarization assay
Details: read-out: IC50 PI3Kγ; listed as 179
measurementName: IC50 (nM)

O=C(Nc1ccc(C(=O)N2CCC(N3CCCC3)CC2)cc1)Nc1ccc(-c2nc(N3CCOCC3)nc(N3CCOCC3)n2)cc1
13

----------
measurementName: melting point (°C)

O=C(Nc1ccc(C(=O)O)cc1)Nc1ccc(-c2nc(N3CCC3)nc(N3CCOCC3)n2)cc1
204
CN1CCN(C(=O)c2ccc(NC(=O)Nc3ccc(-c4nc(N5CCC5)nc(N5CCOCC5)n4)cc3)cc2)CC1
170
O=C(Nc1ccncc1)Nc1ccc(-c2nc(OC3CCOCC3)nc(N3CCOCC3)n2)cc1
238
O=C(Nc1ccncc1)Nc1ccc(-c2nc(N3CCOCC3)nc(N3CC4CCC(C3)O4)n2)cc1
258
CC(=O)c1ccc(NC(=O)Nc2ccc(-c3nc(N4CCOCC4)nc(N4C[C@H]5C[C@@H]4CN5C(=O)OC(C)(C)C)n3)cc2)cc1
202
COC(=O)c1ccc(NC(=O)Nc2ccc(-c3nc(C(C)C)nc(N4CCOCC4)n3)cc2)cc1
218
CC(C)(C)OC(=O)N1C[C@H]2C[C@@H]1CN2c1nc(-c2ccc(NC(=O)Nc3ccncc3)cc2)nc(N2CCOCC2)n1
192
O=C(Nc1ccncc1)Nc1ccc(-c2nc(N3CCC3)nc(N3CCOCC3)n2)cc1
212
COC(=O)c1ccc(NC(=O)Nc2ccc(-c3nc(N4CCC4)nc(N4CCOCC4)n3)cc2)cc1
212

----------
Target: PI3K-α (Homo sapiens)
Assay: PI3K-alpha fluorescence polarization assay
Conditions: read-out: IC50 PI3Kα
Listing of recorded IC50 by entry.
measurementName: IC50 (nM)

O=C(Nc1ccc(C(=O)N2CCNCC2)cc1)Nc1ccc(-c2nc(NS(=O)(=O)c3ccccc3)nc(N3CCOCC3)n2)cc1 [Example 785]
6
C[C@@H]1COCCN1c1nc(-c2ccc(NC(=O)Nc3cccnc3)cc2)nc(N2C[C@@H]3C[C@H]2CO3)n1 [Example 411]
1900
COC(=O)c1ccc(NC(=O)Nc2ccc(-c3nc(NS(=O)(=O)c4ccccc4)nc(N4CCOCC4)n3)cc2)cc1 [Example 789]
870
CN1CCN(C(=O)c2ccc(NC(=O)Nc3ccc(-c4nc(-c5cccs5)nc(N5CCOCC5)n4)cc3)cc2)CC1 [Example 559]
2

----------
Quick list: IC50 per entry.
System: human breast MDA-MB-361 tumor cell line
Test: In vitro cell culture growth assay (MTS), MDA-MB-361
Assay type: cell-based
Conditions: Homo sapiens, MDA-MB-361, 72 h, MDA-MB-361 cells, MTS, three days after drug treatment; read-out: IC50 MDA-MB-361
measurementName: IC50 (nM)

CC(C)N1CCN(C(=O)c2ccc(NC(=O)Nc3ccc(-c4nc(N5CCOCC5)nc(N5C6CCCC5COC6)n4)cc3)cc2)CC1 [Example 805]
3
O=C(Nc1ccc(C(=O)N2CCNCC2)cc1)Nc1ccc(-c2nc(N3CCOCC3)nc(N3CC4CCC3CO4)n2)cc1 (stereo not drawn) [Example 814]
4
O=C(Nc1ccc(C(=O)N2CCC(N3CCCC3)CC2)cc1)Nc1ccc(-c2nc(N3CCOCC3)nc(N3C4CCCC3COC4)n2)cc1 [Example 800]
1
CCN1CCN(C(=O)c2ccc(NC(=O)Nc3ccc(-c4nc(N5CCOCC5)nc(N5CC6CCC5CO6)n4)cc3)cc2)CC1 (stereo not drawn) [Example 812]
3

----------
Target: UniProtKB P42336
Test: PI3K-alpha fluorescence polarization assay
Details: read-out: IC50 PI3Kα; listed as 358
measurementName: IC50 (nM)

NC(=O)c1ccc(NC(=O)Nc2ccc(-c3nc(Nc4ccc(N5CCNCC5)cc4)nc(N4CC5CCC(C4)O5)n3)cc2)cc1
9

----------
Listing: pIC50 of selected compounds
Biological target: PI3K-γ (Homo sapiens)
Test: PI3K-gamma fluorescence polarization assay
Conditions: read-out: IC50 PI3Kγ
pIC50: −log10 of the molar value.
measurementName: pIC50

CCOC(=O)N1CCC(Oc2nc(-c3ccc(NC(=O)Nc4ccncc4)cc3)nc(N3CCOCC3)n2)CC1
5.61
COC(=O)c1ccc(NC(=O)Nc2ccc(-c3nc(-c4ccc(C)cc4)nc(N4CCOCC4)n3)cc2)cc1
5.38
CN1CCN(c2ccc(Nc3nc(-c4ccc(NC(=O)NC5CC5)cc4)nc(N4CC5CCC(C4)O5)n3)cc2)CC1
5.57
O=C(Nc1ccc(C(=O)O)cc1)Nc1ccc(-c2nc(C3=CCOCC3)nc(N3CCOCC3)n2)cc1
7.09
COCCNc1nc(-c2ccc(NC(=O)Nc3cccnc3)cc2)nc(N2CC3CCC(C2)O3)n1
5.21
CN1CCN(C2CCN(c3nc(-c4ccc(NC(=O)Nc5ccncc5)cc4)nc(N4CC5CCC(C4)O5)n3)CC2)CC1
5.02
O=C(Nc1ccc(C(=O)O)cc1)Nc1ccc(-c2nc(N3CCC3)nc(N3CCOCC3)n2)cc1
6.30
COCCNC(=O)c1ccc(NC(=O)Nc2ccc(-c3nc(N4CCOC[C@@H]4C)nc(N4CCOC[C@@H]4C)n3)cc2)cc1
6.91
O=C(Nc1ccc(C(=O)NCCN2CCOCC2)cc1)Nc1ccc(-c2nc(N3CCOCC3)nc(N3C4CCC3COC4)n2)cc1
6.90
Cc1ccc(-c2nc(-c3ccc(NC(=O)Nc4ccc(C(=O)N5CCN(C(C)C)CC5)cc4)cc3)nc(N3CCOCC3)n2)cc1
7.15
CC(C)Nc1nc(-c2ccc(NC(=O)Nc3ccc(N4CCNCC4)cc3)cc2)nc(N2C3CCC2COC3)n1
5.54
CCc1nc(-c2ccc(NC(=O)Nc3ccc(C(=O)N4CCC(N(C)C)CC4)cc3)cc2)nc(N2CCOCC2)n1
8.00
O=C(Nc1ccc(-c2nc(NC3CNC3)nc(N3CC4CCC(C3)O4)n2)cc1)Nc1cccnc1
5.42
COC(=O)c1ccc(NC(=O)Nc2ccc(-c3nc(N4CCOC[C@@H]4C)nc(N4CCOC[C@@H]4C)n3)cc2)cc1
6.92
O=C(Nc1ccncc1)Nc1ccc(-c2nc(N3CCOCC3)nc(N3C4COCC(O)C3C4)n2)cc1 (stereo not drawn)
7.28
